System: Curvularia lunata
Test: Antifungal activity against Curvularia lunata NCIM 1131 incubated for 48 hrs
Format: functional
measurement type: MIC (µg/mL)

[
  {
    "compound": "Clc1ccc(COC(Cn2ccnc2)c2ccc(Cl)cc2Cl)c(Cl)c1 (configuration not stated)",
    "experimental system": "Curvularia lunata",
    "measured": 16
  },
  {
    "compound": "Cc1cc(OCc2cn(Cc3ccccc3)nn2)cc2oc(=O)ccc12",
    "experimental system": "Curvularia lunata",
    "measured": 2
  },
  {
    "compound": "O=c1cc(OCc2cn(Cc3cccc([N+](=O)[O-])c3)nn2)c2ccccc2o1",
    "experimental system": "Curvularia lunata",
    "measured": 2
  },
  {
    "compound": "Cc1cc(OCc2cn(Cc3ccc(Cl)cc3)nn2)cc2oc(=O)ccc12",
    "experimental system": "Curvularia lunata",
    "measured": 2
  },
  {
    "compound": "Cc1cc(OCc2cn(Cc3ccc(Br)cc3)nn2)cc2oc(=O)ccc12",
    "experimental system": "Curvularia lunata",
    "measured": 2
  },
  {
    "compound": "O=c1cc(OCc2cn(Cc3ccc([N+](=O)[O-])cc3)nn2)c2ccccc2o1",
    "experimental system": "Curvularia lunata",
    "measured": 2
  },
  {
    "compound": "O=c1cc(OCc2cn(Cc3ccc(Cl)cc3)nn2)c2ccccc2o1",
    "experimental system": "Curvularia lunata",
    "measured": 2
  },
  {
    "compound": "O=c1cc(OCc2cn(Cc3ccc(Br)cc3)nn2)c2ccccc2o1",
    "experimental system": "Curvularia lunata",
    "measured": 2
  },
  {
    "compound": "Cc1cc(OCc2cn(Cc3cccc(Cl)c3)nn2)cc2oc(=O)ccc12",
    "experimental system": "Curvularia lunata",
    "measured": 2
  },
  {
    "compound": "O=c1cc(OCc2cn(Cc3cccc(Cl)c3)nn2)c2ccccc2o1",
    "experimental system": "Curvularia lunata",
    "measured": 2
  },
  {
    "compound": "Cc1cc(OCc2cn(Cc3cccc([N+](=O)[O-])c3)nn2)cc2oc(=O)ccc12",
    "experimental system": "Curvularia lunata",
    "measured": 2
  },
  {
    "compound": "Cc1cc(OCc2cn(Cc3ccc([N+](=O)[O-])cc3)nn2)cc2oc(=O)ccc12",
    "experimental system": "Curvularia lunata",
    "measured": 2
  }
]

---

System: Escherichia coli
Experiment: Antibacterial activity against Escherichia coli by agar dilution method
Type: functional

[
  {
    "compound": "O=C(N/N=C/c1cn(-c2ccccc2)nc1-c1ccc(Cl)cc1)c1cccc(-n2cc(-c3ccccc3)nn2)c1",
    "MIC [µg/mL]": 4
  },
  {
    "compound": "O=C(N/N=C/c1cn(-c2ccccc2)nc1-c1ccc(O)cc1O)c1cccc(-n2cc(-c3ccccc3)nn2)c1",
    "MIC [µg/mL]": 2
  },
  {
    "compound": "COc1ccc(-c2nn(-c3ccccc3)cc2/C=N/NC(=O)c2cccc(-n3cc(-c4ccccc4)nn3)c2)cc1",
    "MIC [µg/mL]": 2
  },
  {
    "compound": "O=C(N/N=C/c1cn(-c2ccccc2)nc1-c1ccccc1)c1cccc(-n2cc(-c3ccccc3)nn2)c1",
    "MIC [µg/mL]": 8
  }
]

---

System: KB
Test: Cytotoxicity against human KB cells
Assay type: cell-based
Conditions: Homo sapiens, KB
measurement type: IC50 (µg/mL)

[
  {
    "compound": "CC(C)C[C@H](NC(=O)CNC(=O)C(C)(C)NC(=O)[C@@H](NC(=O)C(C)(C)NC(=O)[C@H](CCC(N)=O)NC(=O)[C@H](C)NC(=O)C(C)(C)NC(=O)[C@H](C)NC(=O)C(C)(C)NC(=O)[C@@H]1CCN(C(=O)C(C)(C)n2cc(-c3ccc(F)cc3F)nn2)C1)C(C)C)C(=O)NC(C)(C)C(=O)N1CCC[C@@H]1C(=O)N[C@H](C(=O)NC(C)(C)C(=O)NC(C)(C)C(=O)N[C@@H](CCC(N)=O)C(=O)N[C@@H](CCC(N)=O)C(=O)N[C@H](CO)Cc1ccccc1)C(C)C",
    "measurement type": "IC50",
    "measured": 2.9
  },
  {
    "compound": "CC(C)C[C@H](NC(=O)CNC(=O)C(C)(C)NC(=O)[C@@H](NC(=O)C(C)(C)NC(=O)[C@H](CCC(N)=O)NC(=O)[C@H](C)NC(=O)C(C)(C)NC(=O)[C@H](C)NC(=O)C(C)(C)NC(=O)[C@@H]1CCN(C(=O)C(C)(C)n2cc(-c3ccccc3)nn2)C1)C(C)C)C(=O)NC(C)(C)C(=O)N1CCC[C@@H]1C(=O)N[C@H](C(=O)NC(C)(C)C(=O)NC(C)(C)C(=O)N[C@@H](CCC(N)=O)C(=O)N[C@@H](CCC(N)=O)C(=O)N[C@H](CO)Cc1ccccc1)C(C)C",
    "measurement type": "IC50",
    "measured": 2.9
  },
  {
    "compound": "CC(C)C[C@H](NC(=O)CNC(=O)C(C)(C)NC(=O)[C@@H](NC(=O)C(C)(C)NC(=O)[C@H](CCC(N)=O)NC(=O)[C@H](C)NC(=O)C(C)(C)NC(=O)[C@H](C)NC(=O)C(C)(C)NC(=O)[C@@H]1CCN(C(=O)C(C)(C)n2cc(-c3ccc(C(F)(F)F)cc3)nn2)C1)C(C)C)C(=O)NC(C)(C)C(=O)N1CCC[C@@H]1C(=O)N[C@H](C(=O)NC(C)(C)C(=O)NC(C)(C)C(=O)N[C@@H](CCC(N)=O)C(=O)N[C@@H](CCC(N)=O)C(=O)N[C@H](CO)Cc1ccccc1)C(C)C",
    "measurement type": "IC50",
    "measured": 2.9
  },
  {
    "compound": "CC(C)C[C@H](NC(=O)CNC(=O)C(C)(C)NC(=O)[C@@H](NC(=O)C(C)(C)NC(=O)[C@H](CCC(N)=O)NC(=O)[C@H](C)NC(=O)C(C)(C)NC(=O)[C@H](C)NC(=O)C(C)(C)NC(=O)[C@@H]1CCN(C(=O)C(C)(C)n2cc(-c3ccc(-c4ccccc4)cc3)nn2)C1)C(C)C)C(=O)NC(C)(C)C(=O)N1CCC[C@@H]1C(=O)N[C@H](C(=O)NC(C)(C)C(=O)NC(C)(C)C(=O)N[C@@H](CCC(N)=O)C(=O)N[C@@H](CCC(N)=O)C(=O)N[C@H](CO)Cc1ccccc1)C(C)C",
    "measurement type": "IC50",
    "measured": 2.9
  }
]

---

Test system: Candida albicans
Experiment: Antifungal activity against Candida albicans MTCC 227 incubated for 2 days by microdilution method
Assay type: functional
Conditions: MTCC 227, 48 h, time 2 day
# key: entry, value: MIC

[
  {
    "compound": "OC(Cn1cncn1)(Cn1cncn1)c1ccc(F)cc1F",
    "MIC / µM": 0.0408
  },
  {
    "compound": "COc1ccc(NC(=O)Cn2cc(COc3ccc(OCc4cn(CC(=O)Nc5ccc(OC)cc5)nn4)cc3)nn2)cc1",
    "MIC / µM": 0.167
  },
  {
    "compound": "O=C(Cn1cc(COc2ccc(OCc3cn(CC(=O)Nc4ccc([N+](=O)[O-])cc4)nn3)cc2)nn1)Nc1ccc([N+](=O)[O-])cc1",
    "MIC / µM": 0.0199
  },
  {
    "compound": "O=C(Cn1cc(COc2ccc(OCc3cn(CC(=O)Nc4ccccc4)nn3)cc2)nn1)Nc1ccccc1",
    "MIC / µM": 0.0928
  }
]

---

Tested on: Escherichia coli
Assay: Antibacterial activity against Escherichia coli ATCC 25922 after overnight incubation by CLSI M7-A9 based method
Assay type: functional
Overview of reported MIC across a group of molecules:

[
  {
    "molecule": "C[C@H]1COc2c(N3CCN(C)CC3)c(F)cc3c(=O)c(C(=O)O)cn1c23.C[C@H]1COc2c(N3CCN(C)CC3)c(F)cc3c(=O)c(C(=O)O)cn1c23.O [LEVOFLOXACIN]",
    "MIC": "≤ 0.03 µg/mL"
  },
  {
    "molecule": "COc1c(N2CCN(CCn3ccnn3)CC2)c(F)cc2c(=O)c(C(=O)O)cn(C3CC3)c12",
    "MIC": "≥ 0.5 µg/mL"
  },
  {
    "molecule": "C[C@H](c1ccccc1)N(CC(N)=O)C(=O)CN(C(=O)CN(Cc1cn(CC2CCCCC2)n[n+]1C)C(=O)CN(C(=O)CN(C(=O)CN(Cc1cn(CC2CCCCC2)n[n+]1C)C(=O)CN(C(=O)CN(C(=O)CNCc1cn(CC2CCCCC2)n[n+]1C)[C@H](C)c1ccccc1)[C@H](C)c1ccccc1)[C@H](C)c1ccccc1)[C@H](C)c1ccccc1)[C@H](C)c1ccccc1",
    "MIC": "> 1.6 µg/mL"
  },
  {
    "molecule": "C[C@H](c1ccccc1)N(CC(N)=O)C(=O)CN(C(=O)CN(Cc1cn(CCN)n[n+]1C)C(=O)CN(C(=O)CN(C(=O)CNCc1cn(CCN)n[n+]1C)[C@H](C)c1ccccc1)[C@H](C)c1ccccc1)[C@H](C)c1ccccc1",
    "MIC": "> 1.6 µg/mL"
  },
  {
    "molecule": "C[C@H](c1ccccc1)N(CC(N)=O)C(=O)CN(C(=O)CN(Cc1cn(CC2CCCCC2)n[n+]1C)C(=O)CN(C(=O)CN(C(=O)CNCc1cn(CC2CCCCC2)n[n+]1C)[C@H](C)c1ccccc1)[C@H](C)c1ccccc1)[C@H](C)c1ccccc1",
    "MIC": "> 1.6 µg/mL"
  },
  {
    "molecule": "C[C@H](c1ccccc1)N(CC(N)=O)C(=O)CN(C(=O)CN(Cc1cn(CC2CCCCC2)nn1)C(=O)CN(C(=O)CN(C(=O)CNCc1cn(CC2CCCCC2)nn1)[C@H](C)c1ccccc1)[C@H](C)c1ccccc1)[C@H](C)c1ccccc1",
    "MIC": "> 1.6 µg/mL"
  },
  {
    "molecule": "C[C@H](c1ccccc1)N(CC(N)=O)C(=O)CN(C(=O)CN(Cc1cn(CCN)nn1)C(=O)CN(C(=O)CN(C(=O)CN(Cc1cn(CCN)nn1)C(=O)CN(C(=O)CN(C(=O)CN(Cc1cn(CCN)nn1)C(=O)CN(C(=O)CN(C(=O)CNCc1cn(CCN)nn1)[C@H](C)c1ccccc1)[C@H](C)c1ccccc1)[C@H](C)c1ccccc1)[C@H](C)c1ccccc1)[C@H](C)c1ccccc1)[C@H](C)c1ccccc1)[C@H](C)c1ccccc1",
    "MIC": "> 1.6 µg/mL"
  },
  {
    "molecule": "C[C@H](c1ccccc1)N(CC(N)=O)C(=O)CN(C(=O)CN(Cc1cn(CCN)n[n+]1C)C(=O)CN(C(=O)CN(C(=O)CN(Cc1cn(CCN)n[n+]1C)C(=O)CN(C(=O)CN(C(=O)CN(Cc1cn(CCN)n[n+]1C)C(=O)CN(C(=O)CN(C(=O)CNCc1cn(CCN)n[n+]1C)[C@H](C)c1ccccc1)[C@H](C)c1ccccc1)[C@H](C)c1ccccc1)[C@H](C)c1ccccc1)[C@H](C)c1ccccc1)[C@H](C)c1ccccc1)[C@H](C)c1ccccc1",
    "MIC": "> 1.6 µg/mL"
  }
]
